- System: SK-MEL-5
- TEST_DESCRIPTION: NCI-60 SRB growth inhibition, one-dose and five-dose
- Format: cell-based
- TEST_SETTINGS: Homo sapiens, SK-MEL-5, read-out: percent growth inhibition
Below: a set of entries, each annotated with reported inhibition at 10 µM.
Please answer using a numeric value trailed by its unit.

{"ENTRY_SMILES": "CC(=O)Nc1ccc(/C=C/C(=O)c2cccc(NCc3ccc4oc(=O)ccc4c3)c2)cc1", "inhibition at 10 µM": "76.3%"}

Challenge: What does the data say about its inhibition at 10 µM? Entry: O=C(/C=C/c1cccnc1)c1cccc(NCc2ccc(CO)cc2)c1
Response given: 85.7%

Challenge: What does the data say about its inhibition at 10 µM? Entry: CC(=O)Nc1ccc(/C=C/C(=O)c2cccc(NCc3ccc(CO)cc3)c2)cc1
Response given: 183%

Challenge: What does the data say about its inhibition at 10 µM? Entry: CC(=O)Nc1ccc(CNc2cccc(C(=O)/C=C/c3cccnc3)c2)cc1
Response given: 174%

Challenge: What does the data say about its inhibition at 10 µM? Entry: O=C(/C=C/c1c[nH]cn1)c1cccc(NCc2ccc3oc(=O)ccc3c2)c1
Response given: 30.6%

###

- Tested on: Melanoma cell lines
- TEST_DESCRIPTION: NCI-60 SRB growth inhibition, subpanel
- Type: cell-based, human
- TEST_SETTINGS: Homo sapiens, read-out: MG-MID GI50
MEASURED_ENDPOINT: GI50 (µM)
The reply should be a number in µM, with the unit left off.

{"ENTRY_SMILES": "CC(=O)Nc1ccc(CNc2cccc(C(=O)/C=C/c3cccnc3)c2)cc1", "GI50 / µM": 3.99}
{"ENTRY_SMILES": "O=C(/C=C/c1cccnc1)c1cccc(NCc2csc3ccccc23)c1", "GI50 / µM": 3.76}
{"ENTRY_SMILES": "COc1ccc(CNc2cccc(C(=O)/C=C/c3ccc(NC(C)=O)cc3)c2)cc1OC", "GI50 / µM": 4.44}

Proceed to the following item.
Challenge: Param readout= GI50; system= Melanoma cell lines; entry= O=C(/C=C/c1cccnc1)c1cccc(NCc2ccc(CO)cc2)c1 ; returns value.
Response given: 10.6

###

Below: a set of entries, each annotated with reported GI50.
- System: NCI-H226
- TEST_DESCRIPTION: NCI-60 SRB growth inhibition, one-dose and five-dose
- Format: cell-based
- TEST_SETTINGS: Homo sapiens, NCI-H226
The reply should be a number in µM, with the unit left off.

{"COMPOUND": "COc1ccc(CNc2cccc(C(=O)/C=C/c3cccnc3)c2)cc1OC [Compound 5c]", "ASSAYED_SYSTEM": "NCI-H226", "GI50 / µM": 14.7}
{"COMPOUND": "CC(=O)Nc1ccc(/C=C/C(=O)c2cccc(NCc3csc4ccccc34)c2)cc1 [Compound 5i]", "ASSAYED_SYSTEM": "NCI-H226", "GI50 / µM": 7.73}
{"COMPOUND": "CC(=O)Nc1ccc(/C=C/C(=O)c2cccc(NCc3ccc(CO)cc3)c2)cc1 [Compound 5j]", "ASSAYED_SYSTEM": "NCI-H226", "GI50 / µM": 13.7}

Challenge: Param readout= GI50; system= NCI-H226; entry= CC(=O)Nc1ccc(/C=C/C(=O)c2cccc(NCc3ccc(C)cc3)c2)cc1 [Compound 5f] ; returns value.
Response given: 13.7

Challenge: Param readout= GI50; system= NCI-H226; entry= Cc1ccc(CNc2cccc(C(=O)/C=C/c3cccnc3)c2)cc1 [Compound 5a] ; returns value.
Response given: 11.9
